For each of the compounds below, state its pEC50.
- Test target: hGLP1 receptor (Homo sapiens, UniProt P43220)
- Construct: expressed in transfected cells; host or cells: HEK (human embryonic kidney) cells co-expressing hGLP1 receptor and CRE-Luciferase
- Sequence (P43220 24-463): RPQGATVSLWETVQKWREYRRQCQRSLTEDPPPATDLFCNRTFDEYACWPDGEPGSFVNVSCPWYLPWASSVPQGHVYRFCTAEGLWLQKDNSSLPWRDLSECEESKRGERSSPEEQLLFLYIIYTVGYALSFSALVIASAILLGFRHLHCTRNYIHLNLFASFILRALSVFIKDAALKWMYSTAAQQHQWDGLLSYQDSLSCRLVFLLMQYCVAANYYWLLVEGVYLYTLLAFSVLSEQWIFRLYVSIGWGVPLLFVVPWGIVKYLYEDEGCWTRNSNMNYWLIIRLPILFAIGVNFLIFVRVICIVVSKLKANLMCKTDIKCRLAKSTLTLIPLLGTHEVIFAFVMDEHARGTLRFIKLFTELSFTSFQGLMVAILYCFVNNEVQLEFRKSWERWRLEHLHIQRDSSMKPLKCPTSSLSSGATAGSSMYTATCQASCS
- Assay comment: GLP-1 receptor agonism assay (HTRF cAMP, HEK cells co-expressing hGLP1 receptor and CRE-Luciferase)
- Format: cell-based
- Reported conditions: Table 1, Phe6 modifications, 0% HSA; average of two independent experiments in triplicate (RXL-3039 tested once); read-out: cAMP EC50
Square brackets hold non-standard residues; d marks the D form. Peptide text beside a SMILES is read from it. Bip = N[C@@H](Cc1ccc(-c2ccccc2)cc1)C(=O)O; Aib = CC(C)(N)C(=O)O
# pEC50 = -log10(concentration in molar units)

The compound listed as C[C@@H](O)[C@H](NC(=O)CNC(=O)[C@H](CCC(=O)O)NC(=O)C(C)(C)NC(=O)[C@@H](N)Cc1c[nH]cn1)C(=O)N[C@@H](Cc1ccc(-c2ccccc2)cc1)C(=O)N[C@H](C(=O)N[C@@H](CO)C(=O)N[C@@H](CC(=O)O)C(=O)N[C@@H](Cc1ccc(-c2ccccc2)cc1)C(=O)N[C@@H](Cc1ccc(-c2ccccc2)cc1)C(N)=O)[C@@H](C)O [RXL-3024] (H-H[Aib]EGT[Bip]TSD[Bip][Bip]-NH2) has a reported pEC50 of 7.97

In plain terms, C[C@@H](O)[C@H](NC(=O)CNC(=O)[C@H](CCC(=O)O)NC(=O)C(C)(C)NC(=O)[C@@H](N)Cc1c[nH]cn1)C(=O)N[C@@H](Cc1ccccc1C#N)C(=O)N[C@H](C(=O)N[C@@H](CO)C(=O)N[C@@H](CC(=O)O)C(=O)N[C@@H](Cc1ccc(-c2ccccc2)cc1)C(=O)N[C@@H](Cc1ccc(-c2ccccc2)cc1)C(N)=O)[C@@H](C)O has a documented pEC50 of 8.11

The compound C[C@@H](O)[C@H](NC(=O)CNC(=O)[C@H](CCC(=O)O)NC(=O)C(C)(C)NC(=O)[C@@H](N)Cc1c[nH]cn1)C(=O)N[C@@H](CCc1ccccc1)C(=O)N[C@H](C(=O)N[C@@H](CO)C(=O)N[C@@H](CC(=O)O)C(=O)N[C@@H](Cc1ccc(-c2ccccc2)cc1)C(=O)N[C@@H](Cc1ccc(-c2ccccc2)cc1)C(N)=O)[C@@H](C)O showed pEC50 equal to 7.80

The reported value for C[C@@H](O)[C@H](NC(=O)CNC(=O)[C@H](CCC(=O)O)NC(=O)C(C)(C)NC(=O)[C@@H](N)Cc1c[nH]cn1)C(=O)N[C@@H](Cc1c(F)c(F)c(F)c(F)c1F)C(=O)N[C@H](C(=O)N[C@@H](CO)C(=O)N[C@@H](CC(=O)O)C(=O)N[C@@H](Cc1ccc(-c2ccccc2)cc1)C(=O)N[C@@H](Cc1ccc(-c2ccccc2)cc1)C(N)=O)[C@@H](C)O in terms of pEC50 is 9.52

Short answer for C[C@@H](O)[C@H](NC(=O)CNC(=O)[C@H](CCC(=O)O)NC(=O)C(C)(C)NC(=O)[C@@H](N)Cc1c[nH]cn1)C(=O)N[C@@H](Cc1c[nH]c2ccccc12)C(=O)N[C@H](C(=O)N[C@@H](CO)C(=O)N[C@@H](CC(=O)O)C(=O)N[C@@H](Cc1ccc(-c2ccccc2)cc1)C(=O)N[C@@H](Cc1ccc(-c2ccccc2)cc1)C(N)=O)[C@@H](C)O [RXL-3023] (H-H[Aib]EGTWTSD[Bip][Bip]-NH2) : pEC50 was 7.86

pEC50 reported for this compound Cc1ccccc1C[C@H](NC(=O)[C@@H](NC(=O)CNC(=O)[C@H](CCC(=O)O)NC(=O)C(C)(C)NC(=O)[C@@H](N)Cc1c[nH]cn1)[C@@H](C)O)C(=O)N[C@H](C(=O)N[C@@H](CO)C(=O)N[C@@H](CC(=O)O)C(=O)N[C@@H](Cc1ccc(-c2ccccc2)cc1)C(=O)N[C@@H](Cc1ccc(-c2ccccc2)cc1)C(N)=O)[C@@H](C)O : 8.68

src = paper PMC11721672
